- Assayed system: GCS (Canis lupus familiaris)
- Test method notes: Assay 1: GCS Enzymatic Assay (MDCK cell lysate, C6-NBD-Ceramide, LC/MS)
- Assay type: biochemical, canine
- Measurement setup: Table 3; MDCK cell lysate; read-out: IC50 (nM) generated from Assay 1

| Structure smiles string | IC50 |
| --- | --- |
| O=C(N[C@H](CN1CCCC1)[C@H](O)c1ccc(OC(F)F)cc1)C(=O)c1cc2ccc(Cl)cc2s1 | 50 to 5000 nM |
| O=C(N[C@H](CN1CCCC1)[C@H](O)c1ccc(OC2CC2)c(Cl)c1)C(F)(F)c1ccc(-c2ccc(Cl)s2)cc1 | < 50 nM |
| O=C(N[C@H](CN1CCC1)[C@H](O)c1ccc(OC2CC2)c(F)c1)C(=O)c1cc2cc(Cl)ccc2s1 | < 50 nM |
| O=C(N[C@H](CN1CCCC1)[C@H](O)c1ccc(OC2CC2)c(Cl)c1)C(=O)c1cc2cc(Cl)ccc2s1 | < 50 nM |
| O=C(N[C@H](CN1CCCC1)[C@H](O)c1cc(F)c2c(c1)OCCO2)C(F)(F)c1ccc(-c2ccc(Cl)s2)cc1 | < 50 nM |
| O=C(N[C@H](CN1CCCC1)[C@H](O)c1ccc(OC2CC2)c(Cl)c1)C(=O)c1ccc(-n2ccnn2)cc1 | 50 to 5000 nM |
| O=C(N[C@H](CN1CCCC1)[C@H](O)c1ccc(OC2CC2)c(F)c1)C(=O)c1ccc(C2CC2)cc1 | < 50 nM |
| O=C(N[C@H](CN1CCCC1)[C@H](O)c1ccc(OC2CC2)c(F)c1)C(F)(F)c1ccc(-c2ccc(Cl)s2)cc1 | < 50 nM |

====

- Assayed system: GCS (Canis lupus familiaris)
- Test method notes: Assay 1: GCS Enzymatic Assay (MDCK cell lysate, C6-NBD-Ceramide, LC/MS)
- Format: biochemical, canine
- Measurement setup: Table 2; data without asterisk; read-out: IC50 (nM) generated from Assay 1
Value type: IC50

| Structure smiles string | Value type | Result |
| --- | --- | --- |
| O=C(N[C@H](CN1CCCC1)[C@H](O)c1ccc(OC2CC2)c(Cl)c1)C(=O)c1ccc(-c2ccn(C3CC3)n2)cc1 | IC50 | < 50 nM |
| O=C(N[C@H](CN1CCCC1)[C@H](O)c1ccc(OC2CC2)c(Cl)c1)C(F)(F)c1ccc(-c2ccccn2)cc1 | IC50 | < 50 nM |
| CC(C)n1ccc2cc(-c3ccc(C(=O)C(=O)N[C@H](CN4CCCC4)[C@H](O)c4cc(F)c5c(c4)OCCO5)cc3)ccc21 | IC50 | < 50 nM |

====

- Assayed system: GCS (Canis lupus familiaris, UniProt A0A8I3MXG6)
- Sequence (A0A8I3MXG6 1-394): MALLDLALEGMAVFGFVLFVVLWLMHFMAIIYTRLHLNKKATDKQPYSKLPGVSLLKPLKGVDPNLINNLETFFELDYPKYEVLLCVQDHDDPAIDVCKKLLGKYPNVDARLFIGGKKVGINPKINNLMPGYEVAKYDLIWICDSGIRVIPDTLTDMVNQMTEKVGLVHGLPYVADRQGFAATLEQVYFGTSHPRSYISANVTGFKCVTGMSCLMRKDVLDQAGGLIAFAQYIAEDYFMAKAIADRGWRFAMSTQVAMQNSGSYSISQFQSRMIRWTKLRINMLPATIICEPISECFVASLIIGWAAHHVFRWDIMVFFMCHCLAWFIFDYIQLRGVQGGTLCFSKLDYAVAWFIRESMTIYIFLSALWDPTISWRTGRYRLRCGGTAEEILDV
- Test method notes: Assay 1: GCS Enzymatic Assay (MDCK cell lysate, C6-NBD-Ceramide, LC/MS)
- Assay type: biochemical, canine
- Measurement setup: Table 2; data without asterisk; read-out: IC50 (nM) generated from Assay 1
Value type: IC50

| Structure smiles string | Assayed system | Result |
| --- | --- | --- |
| Cn1ncc2ccc(-c3ccc(C(=O)C(=O)N[C@H](CN4CCCC4)[C@H](O)c4ccc(OC5CC5)c(Cl)c4)cc3)cc21 | GCS (Canis lupus familiaris, UniProt A0A8I3MXG6) | < 50 nM |
| O=C(N[C@H](CN1CCCC1)[C@H](O)c1ccc2c(c1)OCCO2)C(F)(F)c1ccc(-c2ccc(F)cc2)cc1 | GCS (Canis lupus familiaris, UniProt A0A8I3MXG6) | < 50 nM |
| Cn1ncc2ccc(-c3ccc(C(F)(F)C(=O)N[C@H](CN4CCCC4)[C@H](O)c4ccc5c(c4)OCCO5)cc3)cc21 | GCS (Canis lupus familiaris, UniProt A0A8I3MXG6) | < 50 nM |

====

IC50 listing for selected compounds.
- Assayed system: GCS (Canis lupus familiaris)
- Test method notes: Assay 1: GCS Enzymatic Assay (MDCK cell lysate, C6-NBD-Ceramide, LC/MS)
- Type: biochemical, canine
- Measurement setup: Table 2; data without asterisk; read-out: IC50 (nM) generated from Assay 1

| Structure smiles string | Assayed system | IC50 |
| --- | --- | --- |
| O=C(N[C@H](CN1CCCC1)[C@H](O)c1ccc2c(c1)OCCO2)C(=O)c1ccc(-c2ccc(Cl)cc2)cc1 | GCS (Canis lupus familiaris) | < 50 nM |
| O=C(N[C@H](CN1CCCC1)[C@H](O)c1cc(F)c2c(c1)OCCO2)C(=O)c1ccc(-c2ccc3oncc3c2)cc1 | GCS (Canis lupus familiaris) | < 50 nM |
| Cc1nn(C)c2ccc(-c3ccc(C(=O)C(=O)N[C@H](CN4CCCC4)[C@H](O)c4ccc(OC5CC5)c(Cl)c4)cc3)cc12 | GCS (Canis lupus familiaris) | < 50 nM |

====

- Assayed system: UniProt A0A8I3MXG6
- Test method notes: Assay 1: GCS Enzymatic Assay (MDCK cell lysate, C6-NBD-Ceramide, LC/MS)
- Format: biochemical, canine
- Measurement setup: Table 1; MDCK cell lysate; read-out: IC50 (nM) generated from Assay 1
# key: entry, value: IC50
Value type: IC50

| Molecule | Assayed system | Result |
| --- | --- | --- |
| O=C(N[C@H](CN1CCCC1)[C@H](O)c1ccc2c(c1)OCCO2)C(F)(F)c1cc2c(Cl)c(Cl)ccc2o1 | UniProt A0A8I3MXG6 | < 50 nM |
| O=C(N[C@H](CN1CCCC1)[C@H](O)c1ccc2c(c1)OCCO2)/C(=N/O)c1cc2cc(Cl)ccc2o1 | UniProt A0A8I3MXG6 | < 50 nM |
| O=C(N[C@H](CN1CCCC1)[C@H](O)c1ccc2c(c1)OCCO2)C(F)(F)c1ccc2c(c1)OCCO2 | UniProt A0A8I3MXG6 | 50 to 5000 nM |
| O=C(N[C@H](CN1CCCC1)[C@H](O)c1ccc2c(c1)OCCO2)C(F)(F)C1Cc2ccc(-c3ccccn3)cc2C1 (some centres unmarked) | UniProt A0A8I3MXG6 | < 50 nM |
| O=C(N[C@H](CN1CCCC1)[C@H](O)c1ccc(OC2CC2)c(Cl)c1)C(F)(F)C1Cc2ccc(Cl)cc2C1 (some centres unmarked) | UniProt A0A8I3MXG6 | < 50 nM |
| Cn1ncc2cc([C@@H](O)[C@@H](CN3CCCC3)NC(=O)C(F)(F)c3cc4cc(Cl)ccc4o3)ccc21 | UniProt A0A8I3MXG6 | 50 to 5000 nM |
| O=C(N[C@H](CN1CCCC1)[C@H](O)c1ccc2c(c1)OCCO2)C(F)(F)c1cc2cc(Br)ccc2o1 | UniProt A0A8I3MXG6 | < 50 nM |
| C[C@H]1CCCN1C[C@@H](NC(=O)C(F)(F)c1cc2cc(Cl)ccc2o1)[C@H](O)c1ccc2c(c1)OCCO2 | UniProt A0A8I3MXG6 | < 50 nM |
| O=C(N[C@H](CN1CC[C@@H](F)C1)[C@H](O)c1ccc2c(c1)OCCO2)C(F)(F)c1cc2cc(Cl)ccc2o1 | UniProt A0A8I3MXG6 | 50 to 5000 nM |
| O=C(N[C@H](CN1CCCC1)[C@H](O)c1ccc2c(c1)OCCO2)C(F)(F)c1cc2cc(Cl)cc(Cl)c2o1 | UniProt A0A8I3MXG6 | < 50 nM |
| O=C(N[C@H](CN1CCCC1)[C@H](O)c1ccc2c(c1)OCCO2)C(F)(F)c1cc2cc(F)ccc2s1 | UniProt A0A8I3MXG6 | < 50 nM |
| O=C(N[C@H](CN1CCCC1)[C@H](O)c1ccc(OC2CC2)c(Cl)c1)C(F)(F)c1cc2cc(C(F)(F)F)ccc2o1 | UniProt A0A8I3MXG6 | < 50 nM |
| COc1ccc(C(O)[C@@H](CN2CCCC2)NC(=O)C(F)(F)C2Cc3ccccc3C2)cc1F (some centres unmarked) | UniProt A0A8I3MXG6 | 50 to 5000 nM |
| CC1CN(C[C@@H](NC(=O)C(F)(F)c2cc3cc(Cl)ccc3o2)[C@H](O)c2ccc3c(c2)OCCO3)C1 | UniProt A0A8I3MXG6 | < 50 nM |
| O=C(N[C@H](CN1CCCC1)[C@H](O)c1ccc(OC2CC2)c(Cl)c1)C(F)(F)c1cc2cc(Cl)ccc2o1 | UniProt A0A8I3MXG6 | < 50 nM |
| [2H]C([2H])(C(=O)N[C@H](CN1CCCC1)[C@H](O)c1ccc2c(c1)OCCO2)c1cc2cc(Cl)ccc2o1 | UniProt A0A8I3MXG6 | < 50 nM |
| O=C(N[C@H](CN1CCCC1)[C@H](O)c1ccc(OC2CC2)c(Cl)c1)C(F)(F)CCc1ccc2ccccc2c1 | UniProt A0A8I3MXG6 | < 50 nM |
| O=C(N[C@H](CN1CCCC1)[C@@H](O)c1ccc(OC2CC2)c(Cl)c1)C(F)(F)c1cc2cc(C(F)(F)F)ccc2o1 [Compound 69A] | UniProt A0A8I3MXG6 | 50 to 5000 nM |
| O=C(N[C@H](CN1CCCC1)[C@H](O)c1ccc2c(c1)OCCO2)C(=O)C1Cc2ccccc2C1 | UniProt A0A8I3MXG6 | < 50 nM |
| O=C(N[C@H](CN1CCCC1)[C@H](O)c1ccc2c(c1)OCCO2)C(F)(F)c1cc2ccccc2o1 | UniProt A0A8I3MXG6 | < 50 nM |
